The measurements presented in this section are drawn from patent US20050282743A1.

TARGET_SYSTEM: GST-KIAA807 [GST: P08515]
Sequence (P08515 whole entry): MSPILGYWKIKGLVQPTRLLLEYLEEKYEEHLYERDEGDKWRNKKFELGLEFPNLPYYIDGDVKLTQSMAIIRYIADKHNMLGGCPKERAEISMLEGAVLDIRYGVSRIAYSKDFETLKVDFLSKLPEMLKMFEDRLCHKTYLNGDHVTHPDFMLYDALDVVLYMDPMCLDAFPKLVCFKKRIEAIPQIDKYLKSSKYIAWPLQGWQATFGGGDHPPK
PROTOCOL_TEXT: G' assay; note: key of the grades not given here
MEASURED_ATTRIBUTE: Classification

[[record]]
binder = "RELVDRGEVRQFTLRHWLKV (modifications not checked) [Dopamine transporter]"
measured_attribute = "Classification"
experimental_value = "4 A450 class"

[[record]]
binder = "DTLLLTENEGDKTEEQVSYV (modifications not checked) [serotonin receptor 5HT-2B]"
measured_attribute = "Classification"
experimental_value = "1 A450 class"

[[record]]
binder = "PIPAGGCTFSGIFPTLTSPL (modifications not checked) [KIA 1481]"
measured_attribute = "Classification"
experimental_value = "5 A450 class"

[[record]]
binder = "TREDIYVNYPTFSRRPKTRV (modifications not checked) [DNAM-1]"
measured_attribute = "Classification"
experimental_value = "3 A450 class"

[[record]]
binder = "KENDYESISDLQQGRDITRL (modifications not checked) [PAG]"
measured_attribute = "Classification"
experimental_value = "5 A450 class"

[[record]]
binder = "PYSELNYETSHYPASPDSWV (modifications not checked) [catenin - delta 2]"
measured_attribute = "Classification"
experimental_value = "4 A450 class"

[[record]]
binder = "SSKSKSSEESQTFFGLYKL (modifications not checked) [Fas Ligand]"
measured_attribute = "Classification"
experimental_value = "5 A450 class"

